target.under.test: Adrenergic receptor alpha-2 (Rattus norvegicus, UniProt P22086+P19328+P22909)
method: Binding affinity towards rat Alpha-2 adrenergic receptor was evaluated using [3H]- yohimbine as radioligand
Assay type: protein assay
parameter: IC50 (nM)

>>> df
                                   compound                         target_under_test  numeric_value
0  COc1ccc2c(c1)CC(CCN1CCN(c3ccccc3)CC1)CC2 (stereo unspecified)  Adrenergic receptor alpha-2 (Rattus norvegicus, UniProt P22086+P19328+P22909)            260
1  COc1cccc2c1CCC(CCN1CCN(c3ccccc3)CC1)C2 (stereo unspecified)  Adrenergic receptor alpha-2 (Rattus norvegicus, UniProt P22086+P19328+P22909)            600
2  COc1cccc2c1CCCC2CCN1CCN(c2ccccc2)CC1 (stereo unspecified)  Adrenergic receptor alpha-2 (Rattus norvegicus, UniProt P22086+P19328+P22909)             22
3  COc1ccc2c(c1)CCC(CCN1CCN(c3ccccc3)CC1)C2 (stereo unspecified)  Adrenergic receptor alpha-2 (Rattus norvegicus, UniProt P22086+P19328+P22909)            160
4  COc1ccc2c(c1)CCCC2CCCN1CCN(c2ccccc2)CC1 (stereo unspecified)  Adrenergic receptor alpha-2 (Rattus norvegicus, UniProt P22086+P19328+P22909)            170

a: COc1cccc2c1CCC/C2=C\CCN1CCN(c2ccccc2)CC1
b: COc1ccc2c(c1)C=C(CCN1CCN(c3ccccc3)CC1)CC2
Q) When a and b are compared, which has the higher number for IC50? Pick one; state its label.
A) a

P: COc1ccc2c(c1)CCC(CCN1CCN(c3ccccc3)CC1)=C2
Q: COc1cccc2c1CCCC2CCCCN1CCN(c2ccccc2)CC1 (stereo unspecified)
Q) // pick min by IC50: P , Q The response must carry the label of the picked entry.
A) P

I: COc1cccc2c1CCC(CCN1CCN(c3ccccc3)CC1)=C2
II: COc1cccc2c1C(CCCN1CCN(c3ccccc3)CC1)CCC2 (stereo unspecified)
Q) Sorting ascending by IC50, which comes first: I or II ? Which one? Tell me its label.
A) II
(II: 140 nM, I: 357 nM)

###

method: Selectivity ratio of IC50 values of 5-hydroxytryptamine 1A receptor vs Alpha-2 adrenergic receptor
parameter: Selectivity ratio

In the examples that follow, each entry is paired with its recorded Selectivity ratio.
>>> print(df.to_string())
                                   compound  numeric_value
0  COc1ccc2c(c1)CC(CCN1CCN(c3ccccc3)CC1)CC2 (configuration not stated)             72
1  COc1cccc2c1C(CCCN1CCN(c3ccccc3)CC1)CCC2 (configuration not stated)              3

A: COc1ccc2c(c1)CCCC2CCCN1CCN(c2ccccc2)CC1 (configuration not stated)
B: COc1cccc2c1CCCC2CCCN1CCN(c2ccccn2)CC1 (configuration not stated)
C: COc1cccc2c1CCC(CCN1CCN(c3ccccc3)CC1)=C2
D: COc1cccc2c1CCC/C2=C\CCN1CCN(c2ccccc2)CC1
Q) Let's sort these by Selectivity ratio, smallest first. Go ahead? Rank them, then answer with their labels in that order.
A) C, D, A, B

###

method: Selectivity ratio of IC50 values of 5-hydroxytryptamine 1A receptor vs Alpha-2 adrenergic receptor
parameter: Selectivity ratio

Completed entries (count: 4):
>>> df
                                   molecule  numeric_value
0  COc1cccc2c1CCC(CCN1CCN(c3ccccc3)CC1)C2 (stereo unspecified)             11
1  COc1cccc2c1CCCC2CCCCN1CCN(c2ccccc2)CC1 (stereo unspecified)             51
2  COc1ccc2c(c1)CCC(CCN1CCN(c3ccccc3)CC1)=C2             16
3  COc1cccc2c1CCCC2CCCN1CCN(c2ccccc2)CC1 (stereo unspecified)            520

A: COc1cccc2c1CCCC2CCN1CCN(c2ccccc2)CC1 (stereo unspecified)
B: COc1ccc2c(c1)C=C(CCN1CCN(c3ccccc3)CC1)CC2
Q) Smaller Selectivity ratio value? Options are A and B Write down the label of the entry you select.
A) A
(A: 0.2, B: 18)

###

target.under.test: 5-hydroxytryptamine receptor 2A (Rattus norvegicus)
Sequence (P14842 whole entry): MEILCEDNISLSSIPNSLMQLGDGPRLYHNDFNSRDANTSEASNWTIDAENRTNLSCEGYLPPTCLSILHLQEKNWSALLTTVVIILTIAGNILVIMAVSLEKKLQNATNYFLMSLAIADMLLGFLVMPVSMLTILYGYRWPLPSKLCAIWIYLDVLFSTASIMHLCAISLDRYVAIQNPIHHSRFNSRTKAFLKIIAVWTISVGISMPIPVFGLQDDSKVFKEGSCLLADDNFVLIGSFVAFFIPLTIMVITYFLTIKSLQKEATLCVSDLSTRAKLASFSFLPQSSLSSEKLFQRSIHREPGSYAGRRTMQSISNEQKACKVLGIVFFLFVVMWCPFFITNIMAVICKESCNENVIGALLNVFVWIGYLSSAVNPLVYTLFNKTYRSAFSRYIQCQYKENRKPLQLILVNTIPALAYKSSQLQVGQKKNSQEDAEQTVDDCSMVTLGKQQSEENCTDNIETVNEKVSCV
parameter: IC50 (nM)

Some molecules with recorded IC50:
>>> print(df.to_string())
                                   molecule  parameter  numeric_value
0  COc1cccc2c1CCC(CCN1CCN(c3ccccc3)CC1)C2 (stereo not drawn)       IC50            160
1    COc1cccc2c1CCC=C2CCCN1CCN(c2ccccc2)CC1       IC50            204

I: COc1ccc2c(c1)C(CCCN1CCN(c3ccccc3)CC1)=CCC2
II: COc1cccc2c1CCC/C2=C\CCN1CCN(c2ccccc2)CC1
Q) Between these two entries, I and II , state which has the higher IC50. Your answer should be the label attached to the chosen record.
A) II

a: COc1cccc2c1CCCC2CCCN1CCN(c2ccccc2)CC1 (stereo not drawn)
b: COc1cccc2c1CCCC2CCCCN1CCN(c2ccccc2)CC1 (stereo not drawn)
Q) Could you kindly indicate whether a or b has the higher IC50 value? Return value: the label identifying the chosen record.
A) b
(b: 420 nM, a: 230 nM)

###

method: Selectivity ratio of IC50 values of 5-hydroxytryptamine 1A receptor vs 5-hydroxytryptamine 2 receptor
parameter: Selectivity ratio

For orientation, consider the following solved cases.
>>> df
                                   molecule          parameter  numeric_value
0  COc1cccc2c1CCCC2CCCCN1CCN(c2ccccc2)CC1 (centres undefined)  Selectivity ratio             28
1  COc1ccc2c(c1)CCC(CCN1CCN(c3ccccc3)CC1)=C2  Selectivity ratio              7

1: COc1cccc2c1C(CCCN1CCN(c3ccccc3)CC1)CCC2 (centres undefined)
2: COc1ccc2c(c1)C(CCCN1CCN(c3ccccc3)CC1)=CCC2
Q) # returns the entry with the larger Selectivity ratio; inputs 1 and 2 Could you answer with the label of the item you picked?
A) 1
(1: 11, 2: 0.8)

###

This document collects IC50 values reported for 5-hydroxytryptamine receptor 1A (Rattus norvegicus, UniProt P19327).
parameter: IC50 (nM)

Below, 3 molecules whose answers are already recorded.
In [3]: df
Out[3]:
                                   molecule                         target_under_test  numeric_value
0  COc1cccc2c1CCCC2CCN1CCN(c2ccccc2)CC1 (stereo not given)  5-hydroxytryptamine receptor 1A (Rattus norvegicus, UniProt P19327)            140
1  COc1ccc2c(c1)CCC(CCN1CCN(c3ccccc3)CC1)=C2  5-hydroxytryptamine receptor 1A (Rattus norvegicus, UniProt P19327)            8.2
2  COc1cccc2c1CCCC2CCCCN1CCN(c2ccccc2)CC1 (stereo not given)  5-hydroxytryptamine receptor 1A (Rattus norvegicus, UniProt P19327)             15

1: COc1cccc2c1C(CCCN1CCN(c3ccccc3)CC1)CCC2 (stereo not given)
2: COc1ccc2c(c1)CC(CCN1CCN(c3ccccc3)CC1)CC2 (stereo not given)
Q) Lowest IC50? choose 1 or 2 Field: selected label. Fill in the label of the entry you choose.
A) 2

###

method: Selectivity ratio of IC50 values of 5-hydroxytryptamine 1A receptor vs dopamine receptor D2
parameter: Selectivity ratio

Reference set, count: 5
                                   compound  numeric_value
0   COc1cccc2c1CCC(CCN1CCN(c3ccccc3)CC1)=C2              1
1  COc1cccc2c1CCCC2CCCN1CCN(c2ccccc2)CC1 (stereo not given)            220
2  COc1cccc2c1CCCC2CCN1CCN(c2ccccc2)CC1 (stereo not given)              2
3  COc1ccc2c(c1)CCC(CCN1CCN(c3ccccc3)CC1)C2 (stereo not given)             32
4  COc1cccc2c1CCC/C2=C\CCN1CCN(c2ccccc2)CC1              5

A: COc1ccc2c(c1)C(CCCN1CCN(c3ccccc3)CC1)=CCC2
B: COc1cccc2c1CCC=C2CCCN1CCN(c2ccccc2)CC1
C: COc1ccc2c(c1)CC(CCN1CCN(c3ccccc3)CC1)CC2 (stereo not given)
D: COc1cccc2c1CCC(CCN1CCN(c3ccccc3)CC1)C2 (stereo not given)
E: COc1cccc2c1CCCC2CCCN1CCN(c2ccccn2)CC1 (stereo not given)
Q) Hello, I need these entries ordered by Selectivity ratio, highest reading first. Thanks! Reply with the item labels sorted in the order that was asked for.
A) E, C, B, D, A
(E: 259, C: 28, B: 17, D: 2, A: 1)

I: COc1ccc2c(c1)CCCC2CCCN1CCN(c2ccccc2)CC1 (stereo not given)
II: COc1cccc2c1C(CCCN1CCN(c3ccccc3)CC1)CCC2 (stereo not given)
III: COc1cccc2c1CCCC2CCCCN1CCN(c2ccccc2)CC1 (stereo not given)
Q) Highest Selectivity ratio first, then in falling order down to the smallest. Dear reader, please state the labels in the requested order.
A) I, III, II
(I: 17, III: 7, II: 1)
